test system: Staphylococcus aureus; assay: Antibacterial activity methicillin-resistant Staphylococcus aureus MRSA P-8029 assessed as inhibition of bacterial growth incubated for 16 to 24 hrs by broth microdilution assay; type: functional; conditions: time 16-24 hrs
Provide the reported MIC of each item.
Numbers only, in µg/mL.

Report MIC for every entry below.
1. O=C(/C=C/c1c[nH]c2ccccc12)c1cccc(OCc2ccccc2)c1
2. COc1cc(C(=O)/C=C/c2ccc(O)cc2)ccc1O

Reply |
1: 12.5; 2: 12.5

Look at each molecule and report its MIC.
1. O=C(/C=C/c1ccc(Cl)cc1)c1ccc(O)cc1
2. O=C(/C=C/c1ccc(O)c(O)c1)c1ccc(-c2ccccc2)cc1

Reply |
1: 25; 2: 25
